- TESTED SYSTEM: human URAT1 (Homo sapiens (Human), UniProt Q96S37)
- Sequence (Q96S37 whole entry): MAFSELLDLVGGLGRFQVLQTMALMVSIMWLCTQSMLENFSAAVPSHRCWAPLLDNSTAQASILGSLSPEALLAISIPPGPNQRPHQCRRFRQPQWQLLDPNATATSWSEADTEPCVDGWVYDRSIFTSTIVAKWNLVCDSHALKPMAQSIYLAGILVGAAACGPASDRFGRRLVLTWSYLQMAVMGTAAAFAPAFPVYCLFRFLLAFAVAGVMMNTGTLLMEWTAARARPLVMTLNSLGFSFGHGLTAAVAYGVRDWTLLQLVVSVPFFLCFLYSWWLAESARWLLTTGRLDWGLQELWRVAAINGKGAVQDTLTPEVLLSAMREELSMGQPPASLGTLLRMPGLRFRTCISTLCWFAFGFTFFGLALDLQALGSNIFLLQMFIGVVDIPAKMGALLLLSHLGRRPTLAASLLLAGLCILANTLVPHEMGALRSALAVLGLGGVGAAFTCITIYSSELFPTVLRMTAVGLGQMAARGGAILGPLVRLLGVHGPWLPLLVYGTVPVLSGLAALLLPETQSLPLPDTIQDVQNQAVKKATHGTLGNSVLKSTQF
- EXPERIMENTAL DETAILS: 14C-uric acid uptake inhibition in URAT1 high-expression 293/hURAT1 cells
- PROTOCOL CONDITIONS: 50 μM 14C-uric acid, 5 minutes at 37° C., read-out: URAT1 IC50 activity classification
- Procedure: The transfected cells were assayed for ability to uptake uric acid labelled with radioisotope. The test compounds were then evaluated for their activity by determining of their ability to block uric acid uptake by the transfected cells. […] The test compounds were all dissolved in DMSO, and DMSO of the same concentration without the test compounds was used as a solvent control. […] The IC50 of each compound was calculated using the percentage of inhibition at different concentrations.
READOUT KIND: IC50

1. CC(C)(Sc1nc2cc(Br)ccc2n1-c1ccc(C#N)c2ccccc12)C(=O)O ... 1 to 15 µM

Consider now this further compound.
State its IC50: O=C(O)C(Sc1nc2ccccc2n1-c1ccc(C2CC2)c2ccccc12)c1ccc(Cl)cc1 (centres unmarked)
15 to 30 µM

###

- System: hyperuricemia rat models
- EXPERIMENTAL DETAILS: Therapeutic effect on potassium oxonate-induced hyperuricemia rat models (blood uric acid)
- Format: in vivo, SD rats
- PROTOCOL CONDITIONS: 80 mg/kg/d group, baseline, rat serum, mean ± SD
Reported Blood uric acid concentration before drug administration values for a set of compounds
Please respond with the number in µmol/L and leave the unit unwritten.

Here's what some known entries look like.
1. O=C(O)CSc1nnc(Br)n1-c1ccc(C2CC2)c2ccccc12 [Lesinurad, reference compound] ... 161.20
2. CC(C)(Sc1nc2ccccc2n1-c1ccc(C#N)cc1)C(=O)O ... 158.38

State its Blood uric acid concentration before drug administration: CC(C)(Sc1nc2cc(Br)ccc2n1-c1ccc(C#N)c2ccccc12)C(=O)O
181.25

State its Blood uric acid concentration before drug administration: CC(C)(Sc1nc2ccccc2n1-c1ccc(C#N)c2ccccc12)C(=O)O
150.86

State its Blood uric acid concentration before drug administration: COc1ccc2c(c1)nc(SC(C)(C)C(=O)O)n2-c1ccc(C#N)c2ccccc12
175.83

###

- System: hyperuricemia rat models
- EXPERIMENTAL DETAILS: Therapeutic effect on potassium oxonate-induced hyperuricemia rat models (blood uric acid)
- Type: in vivo, SD rats
- PROTOCOL CONDITIONS: 80 mg/kg/d, 7 days vs before drug administration
Reported Blood uric acid increase values for a set of compounds
Please respond with the number in % and leave the unit unwritten.

Here's what some known entries look like.
1. O=C(O)CSc1nnc(Br)n1-c1ccc(C2CC2)c2ccccc12 [Lesinurad, reference compound] ... 3.50
2. CC(C)(Sc1nc2ccccc2n1-c1ccc(C#N)cc1)C(=O)O ... 11.90
3. CC(C)(Sc1nc2cc(Br)ccc2n1-c1ccc(C#N)c2ccccc12)C(=O)O ... −12.06

State its Blood uric acid increase: COc1ccc2c(c1)nc(SC(C)(C)C(=O)O)n2-c1ccc(C#N)c2ccccc12
0.07

State its Blood uric acid increase: CC(C)(Sc1nc2ccccc2n1-c1ccc(C#N)c2ccccc12)C(=O)O
7.26

###

- TESTED SYSTEM: human URAT1 (Homo sapiens (Human), UniProt Q96S37)
- EXPERIMENTAL DETAILS: 14C-uric acid uptake inhibition in URAT1 high-expression 293/hURAT1 cells
- PROTOCOL CONDITIONS: 50 μM 14C-uric acid, 5 minutes at 37° C., read-out: URAT1 IC50 activity classification
Reported IC50 values for a set of compounds

Here's what some known entries look like.
1. CC(C)(Sc1nc2ccccc2n1-c1ccc(Br)cc1F)C(=O)O ... 15 to 30 µM
2. COc1ccc2c(c1)nc(SC(C)(C)C(=O)O)n2-c1ccc(C#N)c2ccccc12 ... 1 to 15 µM

State its IC50: CC(C)(Sc1nc2ccccc2n1-c1ccc(Cl)cc1F)C(=O)O
15 to 30 µM

State its IC50: CC(C)(Sc1nc2ccccc2n1-c1ccc(C#N)cc1)C(=O)O
1 to 15 µM

State its IC50: CC(C)(Sc1nc2ccccc2n1-c1ccc(C#N)c2ccccc12)C(=O)O
1 to 15 µM

State its IC50: CC(C)(Sc1nc2ccccc2n1-c1ccccc1)C(=O)O
30 to 100 µM

State its IC50: CC(C)(Sc1nc2ccccc2n1-c1ccc(C2CC2)c2ccccc12)C(=O)O
15 to 30 µM

State its IC50: CC(C)(Sc1nc2ccccc2n1-c1ccccc1F)C(=O)O
15 to 30 µM

State its IC50: CC(C)(Sc1nc2ccccc2n1-c1ccc([N+](=O)[O-])cc1F)C(=O)O
30 to 100 µM
